List of Neutralization B-1 IC50 values.
Biological target: protein F of hRSV strain B-1 (on RSV B-1-infected Hep2 cells and on virus) (human respiratory syncytial virus, …, UniProt P13843 26-574)
Assay: cell-based or functional assay
# unit: µM | format: bare number

## Task Name the recorded Neutralization B-1 IC50 of the binder listed here: Nanobody 8A1 (VHH, also called PMP8A1; PRSV8A1) VHH: EVQLVESGGGLVQPGGSLRVSCAASGFTFNDYIMGWFRQAPGKERMFIAAISGTGTIKYYGDLVRGRFTISRDNAKNTVYLRIDSLNPEDTAVYYCAARQDYGLGYRESHEYDYWGQGTQVTVSS
## Result 12.2

## Task Name the recorded Neutralization B-1 IC50 of the binder listed here: Nanobody 1A2 (VHH, also called PMP1A2; PRSV1A2) VHH: EVQLVESGGGLVQAGGSLRLSCAASERTFSYYAMGWFRQAPGKEREFVATISRSGEWIYYKDAMKGRFTISRDNANNAVYLQMNSLQPEDTAIYYCAADSLGGFRSASDYYNTNTYAYWGQGTQVTVSS
## Result 13.7

Others:
## Task Name the recorded Neutralization B-1 IC50 of the binder listed here: Nanobody 13C1 (VHH, also called PMP13C1; PRSV13C1) VHH: EVQLVESGGGLVQPGGSLRLSCEASGFTWDYYVIGWFRQAPGKEREGLSCISSDGSTTYADSVKGRFTISRDNAKNTVYLQMNSLEPEDTAVYYCATDPALGCYSGSYYPRYDYWGQGTQVTVSS
## Result 11.4
